Biological target: Replicase polyprotein 1ab (Severe acute respiratory syndrome coronavirus 2)
Assay: biochemical
Assay type: functional
outcomeMeasure: pIC50
Note on pIC50: it is the negative log10 of concentration, concentration in mol/L.

Prompt: Report value: pIC50, system: Replicase polyprotein 1ab (Severe acute respiratory syndrome coronavirus 2), sequence: ACRIFLAVINE HYDROCHLORIDE
Response: 5.71

---
Prompt: Report value: pIC50, system: Replicase polyprotein 1ab (Severe acute respiratory syndrome coronavirus 2), sequence: "AUROTHIOGLUCOSE"
Response: 5.76

Prompt: Report value: pIC50, system: Replicase polyprotein 1ab (Severe acute respiratory syndrome coronavirus 2), sequence: PHENYLMERCURIC ACETATE
Response: 8.00

Prompt: Report value: pIC50, system: Replicase polyprotein 1ab (Severe acute respiratory syndrome coronavirus 2), sequence: "CISPLATIN"
Response: 5.42

Prompt: Report value: pIC50, system: Replicase polyprotein 1ab (Severe acute respiratory syndrome coronavirus 2), sequence: "MERBROMIN"
Response: 6.62
